Values were extracted from paper PMC11125126.

Would you kindly list MIC for each of these compounds?
- System: Listeria monocytogenes
- PROTOCOL SUMMARY: MIC/MBC by broth dilution, pure ILs
- Format: cell-based
- CONDITION SUMMARY: 24 h, NI = no inhibition at IL maximum concentration used (1000 µM), read-out: MIC
Numbers only, in µM.

Worked examples, 2 compounds total:
# COMPOUND SMILES, MIC / µM
data = [
    ("CCCCCCCCCCn1cc[n+](C)c1.F[B-](F)(F)F", 250),
    ("CCCCCCCCC[n+]1ccn(C)c1.F[B-](F)(F)F", 500),
]

# next compound below
Consider the compound shown here: CCCCCCCCCCCCCCCCCC[n+]1ccn(C)c1.COC(=O)c1cc(C(=O)OC)cc(S(=O)(=O)[O-])c1 What is its recorded MIC? 500

---

- Test system: MCF7 cancer cells
- PROTOCOL SUMMARY: Direct cytotoxicity test of IL powders, Alamar blue assay
- Type: cell-based, human
- CONDITION SUMMARY: Homo sapiens, 24 h of incubation, n = 3
For each record, write down the corresponding IC50.

# COMPOUND, VALUE REPORTED
records = [
    ("CCCCCCCCCCn1cc[n+](C)c1.F[B-](F)(F)F", "7.39 µg/mL"),
    ("CCCCCCCCCCCCCCCCCCCC[n+]1ccn(C)c1.F[B-](F)(F)F", "3.47 µg/mL"),
    ("CCCCCCCCC[n+]1ccn(C)c1.F[B-](F)(F)F", "> 14.8 µg/mL"),
]

Hi team, please reply with IC50 for each item in this list.
1. CCCCCCCCCCCCCCCC[n+]1ccn(C)c1.F[B-](F)(F)F
2. CCCCCCCCCCCCCC[n+]1ccn(C)c1.F[B-](F)(F)F
3. COc1cccc2c1C(=O)c1c(O)c3c(c(O)c1C2=O)C[C@@](O)(C(=O)CO)C[C@@H]3O[C@H]1C[C@H](N)[C@H](O)[C@H](C)O1 [Doxorubicin, reference compound]
4. CCCCCCCCCCCCCCCCCC[n+]1ccn(C)c1.F[B-](F)(F)F
5. CCCCCCCCCCCCn1cc[n+](C)c1.F[B-](F)(F)F

1.64 µg/mL
4.41 µg/mL
7.2 µg/mL
1.95 µg/mL
2.05 µg/mL

---

- Tested on: Listeria monocytogenes
- PROTOCOL SUMMARY: MIC/MBC by broth dilution, pure ILs
- Type: cell-based
- CONDITION SUMMARY: 24 h, 10^6 CFU/mL, read-out: MBC
Please respond with reported log10(MBC) for every item in the list.
Annotation: log10 of MBC, µg/mL basis.

Below, 3 compounds whose answers are already recorded.
# COMPOUND, log10(MBC)
rows = [
    ("CCCCCCCCCCCCCCCCCC[n+]1ccn(C)c1.F[B-](F)(F)F [C18mimBF4]", 2.63),
    ("CCCCCCCCC[n+]1ccn(C)c1.F[B-](F)(F)F [C9mimBF4]", 2.17),
    ("CCCCCCCCCCCCCCCC[n+]1ccn(C)c1.F[B-](F)(F)F [C16mimBF4]", 1.99),
]

List log10(MBC) for every entry below, keeping the order given.
1. CCCCCCCCCCCCCC[n+]1ccn(C)c1.F[B-](F)(F)F [C14mimBF4]
2. CCCCCCCCCCCCn1cc[n+](C)c1.F[B-](F)(F)F [C12mimBF4]
3. CCCCCCCCCCn1cc[n+](C)c1.F[B-](F)(F)F [C10mimBF4]

0.66
1.23
2.19
